Biological target: human recombinant HDAC1 (Homo sapiens, UniProt Q13547)
Sequence (Q13547 whole entry): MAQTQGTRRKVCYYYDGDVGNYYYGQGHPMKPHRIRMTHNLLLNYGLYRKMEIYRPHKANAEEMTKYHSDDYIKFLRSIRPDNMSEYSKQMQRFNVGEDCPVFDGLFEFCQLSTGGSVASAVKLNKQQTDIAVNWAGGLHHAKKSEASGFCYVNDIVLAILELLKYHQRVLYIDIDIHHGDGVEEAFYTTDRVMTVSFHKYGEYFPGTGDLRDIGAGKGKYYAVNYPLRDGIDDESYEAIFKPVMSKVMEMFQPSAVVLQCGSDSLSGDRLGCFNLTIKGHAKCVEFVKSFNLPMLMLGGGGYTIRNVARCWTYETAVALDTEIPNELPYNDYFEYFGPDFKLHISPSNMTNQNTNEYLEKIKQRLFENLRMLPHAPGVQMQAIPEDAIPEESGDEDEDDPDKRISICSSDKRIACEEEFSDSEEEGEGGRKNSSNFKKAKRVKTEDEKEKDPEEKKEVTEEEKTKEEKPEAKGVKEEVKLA
Experiment: HDAC1 enzyme activity inhibition assay (in vitro, fluorimetric)
Settings: human recombinant HDAC1, fluorimetric kit, 30° C. 60 minutes
Endpoint: IC50 (µM)

* CC(C)N1CCN(Cc2cccc(C(=O)N3[C@H](C)CN(Cc4ccc(C(=O)NO)cc4)C[C@@H]3C)c2)CC1 | 3.7

I. C[C@@H]1CN(Cc2ccc(-n3cnnc3)cc2)C[C@H](C)N1Cc1ccc(C(=O)NO)cc1
II. C[C@@H]1CN(Cc2ccc(C(=O)NO)cc2)C[C@H](C)N1Cc1cccc(CN2CCN(CC(F)(F)F)CC2)c1
Exam item: Of I and II , whose reported IC50 is numerically smaller? Please identify the chosen entry by its label.
Marked response: I
(I: 2.3 µM, II: 11.9 µM)

###

Target: human recombinant HDAC6 (Homo sapiens)
Sequence (Q9UBN7 1-1215): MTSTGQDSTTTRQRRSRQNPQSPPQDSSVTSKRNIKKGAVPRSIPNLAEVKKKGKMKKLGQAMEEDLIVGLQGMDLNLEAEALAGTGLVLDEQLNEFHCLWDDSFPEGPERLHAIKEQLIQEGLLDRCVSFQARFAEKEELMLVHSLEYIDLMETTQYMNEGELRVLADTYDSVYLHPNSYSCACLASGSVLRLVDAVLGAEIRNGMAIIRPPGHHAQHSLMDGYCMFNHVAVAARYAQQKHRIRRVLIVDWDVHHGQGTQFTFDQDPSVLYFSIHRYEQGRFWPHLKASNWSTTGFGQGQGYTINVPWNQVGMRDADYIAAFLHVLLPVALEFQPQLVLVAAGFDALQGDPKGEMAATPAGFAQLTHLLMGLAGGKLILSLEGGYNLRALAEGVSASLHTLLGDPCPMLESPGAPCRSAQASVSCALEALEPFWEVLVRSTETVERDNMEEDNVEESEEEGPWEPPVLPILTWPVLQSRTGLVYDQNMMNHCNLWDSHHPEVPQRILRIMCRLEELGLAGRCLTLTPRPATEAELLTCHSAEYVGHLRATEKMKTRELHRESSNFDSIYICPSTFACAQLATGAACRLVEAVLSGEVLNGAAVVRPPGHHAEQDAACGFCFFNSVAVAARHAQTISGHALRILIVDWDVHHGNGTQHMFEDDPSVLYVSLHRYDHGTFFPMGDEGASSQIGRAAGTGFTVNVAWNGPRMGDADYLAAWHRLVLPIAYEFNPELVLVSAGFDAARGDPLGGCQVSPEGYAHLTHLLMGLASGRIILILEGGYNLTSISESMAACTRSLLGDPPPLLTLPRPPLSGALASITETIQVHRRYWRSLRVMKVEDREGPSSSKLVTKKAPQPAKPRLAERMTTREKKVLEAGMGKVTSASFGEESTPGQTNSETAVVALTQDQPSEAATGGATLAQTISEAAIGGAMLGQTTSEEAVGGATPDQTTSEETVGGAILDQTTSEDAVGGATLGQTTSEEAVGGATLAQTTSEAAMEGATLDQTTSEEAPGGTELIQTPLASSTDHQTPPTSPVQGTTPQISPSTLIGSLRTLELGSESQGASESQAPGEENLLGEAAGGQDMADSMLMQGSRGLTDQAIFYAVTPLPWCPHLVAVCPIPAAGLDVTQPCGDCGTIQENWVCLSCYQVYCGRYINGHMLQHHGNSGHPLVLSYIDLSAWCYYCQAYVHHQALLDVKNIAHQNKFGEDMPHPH
Assay: HDAC6 enzyme activity inhibition assay (in vitro, fluorimetric)
Conditions: human recombinant HDAC6, fluorimetric kit, same protocol as HDAC1
Endpoint: IC50 (nM)

- C[C@@H]1CN(C(=O)c2ccccc2)C[C@H](C)N1Cc1ccc(C(=O)NO)cc1 [Compound 080]: 179
- C[C@@H]1CN(Cc2ccc(C(=O)NO)cc2)C[C@H](C)N1Cc1cccc(CN2CCCC2)c1 [Compound 427]: 152
- C[C@@H]1CN(Cc2ccc(/C=C/C(=O)NO)cc2)C[C@H](C)N1C(=O)Cc1ccccc1 [Compound 323]: 921
